- Tested on: MDA-MB-468 breast
- Test name: NCI tumour cell line growth inhibition, 48 h
TGI reference
Record the value in µM, omitting the unit from your answer.

Compound	Observed property	Meas value
O=C(C[n+]1cccc2cc(Cl)ccc21)c1ccc2c(c1)CCCC2	TGI	1.82

Then this compound:
q: State its TGI: CCCCC(CCCCCC(CCCC)C1NC(C)Cc2cc(OC)c(OC)cc21)C1NC(C)Cc2cc(OC)c(OC)cc21 (stereo not drawn)
a: 1.88

* * *

- Test system: MDA-MB-468 breast
- Test name: NCI tumour cell line growth inhibition, 48 h
Observed property: TGI
Give the number first and the unit second.

Compound	Target system	TGI
C[C@]12CC[C@@H]3c4ccc(O)cc4CC[C@H]3[C@@H]1CC[C@@H]2NS(=O)(=O)c1ccc(Cl)cc1	MDA-MB-468 breast	17.3 µM
O=C1/C(=C/c2ccccc2)CN(C(=O)CCN2CCC(=NO)CC2)C/C1=C\c1ccccc1	MDA-MB-468 breast	4.25 µM
Clc1ccc(C(Cn2ccnc2)OCc2ccsc2Cl)c(Cl)c1 (centres undefined)	MDA-MB-468 breast	7.3 µM
C=CC(=O)N1CCN(CCCn2c(=O)c(-c3c(Cl)c(OC)cc(OC)c3Cl)cc3cnc(NC)nc32)CC1	MDA-MB-468 breast	5.9 µM
COc1cccc2[nH]c3c4c(c5c(c3c12)C(=O)N(CN1CCN(C)CC1)C5=O)CCC4	MDA-MB-468 breast	26.6 µM
O=C(Nc1ncc(Cc2ccccc2)s1)c1sc2ccccc2c1Cl	MDA-MB-468 breast	18.7 µM
COc1ccc(-c2cn[nH]c2-c2cc(OC)c(OC)c(OC)c2)cc1OCc1ccccc1	MDA-MB-468 breast	7.94 µM
NC(N)=NN=C(c1ccccc1)c1ccccc1	MDA-MB-468 breast	12.2 µM

Then this compound:
q: State its TGI: `Nc1n[nH]c2cccc(C#Cc3cccc(NC(=O)c4ccc(N5CCOCC5)c(C(F)(F)F)c4)c3)c12`
a: 6.82 µM

* * *

- System: MDA-MB-468 breast
- Test name: NCI tumour cell line growth inhibition, 48 h; in the data active means GI50 below about 0.43 µM; inactive means the rest
Output constraint: value belongs to true (1) (active), false (0) (inactive)

Example results:
Compound	Answer label
Cc1ccc(C)c(NC2=C(Cl)C(=O)c3nc(C)ccc3C2=O)c1	false (0)
Cc1ccc(S(=O)(=O)c2ccccc2)cc1	false (0)

q: Which outcome did this test record for the compound `O=C(Nc1ncc(Cc2ccccc2)s1)c1sc2ccccc2c1Cl` ?
a: false (0)

q: Which outcome did this test record for the compound `COC1=C(OC)C(=O)C(CCCCCCCCCC[P+](c2ccccc2)(c2ccccc2)c2ccccc2)=C(C)C1=O` ?
a: true (1)

q: Which outcome did this test record for the compound `Clc1ccc2c(N3CCN(c4ccnc(NC5CCCCC5)n4)CC3)ccnc2c1` ?
a: false (0)

q: Which outcome did this test record for the compound COc1ccc2c(c1)C=CC1(O2)Oc2ccc(OC)cc2C=C1C (configuration not stated) ?
a: false (0)

q: Which outcome did this test record for the compound `O=C(C[n+]1cccc2cc(Cl)ccc21)c1ccc2c(c1)CCCC2` ?
a: true (1)

q: Which outcome did this test record for the compound `CC[C@H](C)[C@H](NC(=O)c1ccccn1)C(=O)N(C)[C@H](C[C@@H](OC(C)=O)c1nc(C(=O)N[C@@H](Cc2ccccc2)C[C@H](C)C(=O)OC)cs1)C(C)C` ?
a: false (0)

q: Which outcome did this test record for the compound CCCCC(CCCCCC(CCCC)C1NC(C)Cc2cc(OC)c(OC)cc21)C1NC(C)Cc2cc(OC)c(OC)cc21 (configuration not stated) ?
a: false (0)
